- measuredOn: T1, natriuretic peptide receptor-B (human)
- T1 chain: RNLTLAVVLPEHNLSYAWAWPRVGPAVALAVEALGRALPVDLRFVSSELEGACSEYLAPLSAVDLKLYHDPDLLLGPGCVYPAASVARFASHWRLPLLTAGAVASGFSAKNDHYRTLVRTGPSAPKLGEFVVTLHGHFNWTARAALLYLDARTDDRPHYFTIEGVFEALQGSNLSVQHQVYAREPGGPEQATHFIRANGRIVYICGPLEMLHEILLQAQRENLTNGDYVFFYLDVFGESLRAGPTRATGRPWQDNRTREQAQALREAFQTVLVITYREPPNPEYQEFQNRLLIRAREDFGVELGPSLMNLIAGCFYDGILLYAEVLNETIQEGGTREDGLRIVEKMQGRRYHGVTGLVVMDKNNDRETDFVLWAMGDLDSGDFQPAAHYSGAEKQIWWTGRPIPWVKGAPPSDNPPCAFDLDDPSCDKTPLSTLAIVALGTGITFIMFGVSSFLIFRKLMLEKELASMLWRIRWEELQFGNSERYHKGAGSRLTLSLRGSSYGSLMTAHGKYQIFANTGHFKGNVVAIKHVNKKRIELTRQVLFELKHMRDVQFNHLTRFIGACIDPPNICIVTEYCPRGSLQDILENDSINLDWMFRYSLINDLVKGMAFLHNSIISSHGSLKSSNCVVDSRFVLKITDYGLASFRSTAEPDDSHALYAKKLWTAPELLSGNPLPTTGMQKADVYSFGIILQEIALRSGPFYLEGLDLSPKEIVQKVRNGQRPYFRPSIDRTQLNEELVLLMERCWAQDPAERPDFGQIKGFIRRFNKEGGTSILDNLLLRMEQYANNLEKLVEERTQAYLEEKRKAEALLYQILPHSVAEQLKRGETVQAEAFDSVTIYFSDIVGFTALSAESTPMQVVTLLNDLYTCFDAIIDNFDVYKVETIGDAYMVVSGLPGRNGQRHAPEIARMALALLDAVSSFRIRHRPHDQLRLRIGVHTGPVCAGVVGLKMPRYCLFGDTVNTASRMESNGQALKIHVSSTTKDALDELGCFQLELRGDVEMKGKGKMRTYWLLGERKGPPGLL
- testProtocol: cell-based or functional assay
Numbered stars: 1 amine (or outer) side, 2 acyl side, 3 side chain; on linkers, the order of the positions; unused ones are H or OH. Square brackets hold non-standard residues; d marks the D form. Ends that are not written are not given here. * marks the point of attachment. Sni = (S)-nipecotic acid, O=C([C@H]1CCCN([*:1])C1)[*:2]; Phe(4-NO2) = N[C@@H](Cc1ccc([N+](=O)[O-])cc1)C(=O)O; Hyp = O=C(O)[C@@H]1C[C@@H](O)CN1; NMeL = CN[C@@H](CC(C)C)C(=O)O; orn(Me2) = not defined here; Octanoyl = CCCCCCCC(=O)*; Che = not defined here; Paf = not defined here; leu = not defined here; Occ = octanoic acid
readoutKind: EC50 group, cGMP in GTM-3 cells

- binder: "Octanoyl-[Sni][Phe(4-NO2)][leu]L[Hyp][NMeL]DRI-NH2 (reading uncertain; also: printed as Occ-Sni-Nif-leu-Leu-Hyp-Nml-Asp-Arg-Ile-NH2) [JAL-1486]"
  assayValue: "≤ 5 µM"
- binder: "Octanoyl-[Sni][Paf][leu]L[Hyp][NMeL]DRI-NH2 (reading uncertain; also: printed as Occ-Sni-Paf-leu-Leu-Hyp-Nml-Asp-Arg-Ile-NH2) [JAL-1492]"
  assayValue: "≤ 5 µM"
- binder: "[Occ][Sni]F[orn(Me2)]L[Hyp][NMeL]TR[Che] (reading uncertain; also: printed as Occ-Sni-Phe-orn(Me2)-Leu-Hyp-Nml-Thr-Arg-Che) [JAL-1895]"
  assayValue: "≤ 1 µM"
- binder: "Octanoyl-AFRL[Hyp][NMeL]DPI-NH2 (also: lower-case ala, arg: meaning not given here) [JAL-1434]"
  assayValue: "≤ 5 µM"
